- tested_system: OCT1 WT (Homo sapiens, UniProt O15245)
- Sequence (O15245 1-554): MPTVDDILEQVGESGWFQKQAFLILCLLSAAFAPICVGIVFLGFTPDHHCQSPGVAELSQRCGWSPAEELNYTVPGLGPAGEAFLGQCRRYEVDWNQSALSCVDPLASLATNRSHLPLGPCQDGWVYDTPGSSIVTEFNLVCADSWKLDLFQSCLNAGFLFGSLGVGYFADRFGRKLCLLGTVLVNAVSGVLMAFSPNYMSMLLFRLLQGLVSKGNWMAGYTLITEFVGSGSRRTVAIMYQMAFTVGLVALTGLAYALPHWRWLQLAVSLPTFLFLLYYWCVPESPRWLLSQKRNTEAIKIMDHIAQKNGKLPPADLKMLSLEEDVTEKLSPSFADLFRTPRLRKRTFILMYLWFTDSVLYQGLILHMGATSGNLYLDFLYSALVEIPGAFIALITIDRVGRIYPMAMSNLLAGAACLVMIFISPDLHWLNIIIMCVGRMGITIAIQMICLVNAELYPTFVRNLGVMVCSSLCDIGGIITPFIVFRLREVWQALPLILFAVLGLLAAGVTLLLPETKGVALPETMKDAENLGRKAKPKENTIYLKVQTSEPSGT
- experiment: Uptake screening (transport ratio over empty vector), HEK293 cells overexpressing OCT1 WT
- Format: cell-based
- Set-up: expressed in transfected cells
- conditions_used: uptake ratio over empty vector, HEK293 cells overexpressing OCT1 WT
# thresholds on Mean_transport_ratio_WT define classes: low (below 5), intermediate (5 to below 10), high (10 or more)

                                    molecule                           tested_system  discrete_label
 0  O=C(OC1C[N+]2(CCCOc3ccccc3)CCC1CC2)C(O)(c1cccs1)c1cccs1 [(S)-Aclidinium]  OCT1 WT (Homo sapiens, UniProt O15245)             low
 1                 C[N+]1(C)CCN(c2ccccc2)CC1  OCT1 WT (Homo sapiens, UniProt O15245)            high
 2  CCCC[N+]1(C)[C@@H]2C[C@@H](OC(=O)[C@H](CO)c3ccccc3)C[C@H]1[C@@H]1O[C@@H]12 (stereo partly drawn)  OCT1 WT (Homo sapiens, UniProt O15245)            high
 3   CNC(=C[N+](=O)[O-])NCCSCc1ccc(CN(C)C)o1  OCT1 WT (Homo sapiens, UniProt O15245)            high
 4  Cc1nccn1CC1CCc2c(c3ccccc3n2C)C1=O (stereo not drawn)  OCT1 WT (Homo sapiens, UniProt O15245)             low
 5         CN(C)CCc1c[nH]c2ccc(Cn3cncn3)cc12  OCT1 WT (Homo sapiens, UniProt O15245)    intermediate
 6  COc1ccc2cc3[n+](cc2c1OC)CCc1cc2c(cc1-3)OCO2  OCT1 WT (Homo sapiens, UniProt O15245)            high
 7              CC(C)NC[C@H](O)COc1ccc(O)cc1  OCT1 WT (Homo sapiens, UniProt O15245)             low
 8                 NC(N)=NC(N)=Nc1ccc(Cl)cc1  OCT1 WT (Homo sapiens, UniProt O15245)            high
 9  CCN1CCCC1CNC(=O)c1cc(S(=O)(=O)CC)c(N)cc1OC (stereo not drawn) [Amisulpride]  OCT1 WT (Homo sapiens, UniProt O15245)    intermediate
10  C[N+]12CCC(CC1)C(OC(=O)C(O)(c1ccccc1)c1ccccc1)C2 (stereo not drawn)  OCT1 WT (Homo sapiens, UniProt O15245)            high
11  CC(C)(C)NCC(O)c1ccc(O)c(CO)c1 (stereo not drawn)  OCT1 WT (Homo sapiens, UniProt O15245)    intermediate
12                            NCCc1ccc(O)cc1  OCT1 WT (Homo sapiens, UniProt O15245)             low
13  CNCc1ccc(-c2[nH]c3cc(F)cc4c3c2CCNC4=O)cc1  OCT1 WT (Homo sapiens, UniProt O15245)             low
14              Cc1cc(N)c(OC(C)C)cc1C1CCNCC1  OCT1 WT (Homo sapiens, UniProt O15245)             low
15  CC(=O)Nc1ccc(OCC(O)CNC(C)C)cc1 (stereo not drawn)  OCT1 WT (Homo sapiens, UniProt O15245)             low
16  CC(CCc1ccc(O)cc1)NCCc1ccc(O)c(O)c1 (stereo not drawn)  OCT1 WT (Homo sapiens, UniProt O15245)    intermediate
17  CC(C)(C)NCC(O)c1ccc(O)c(CO)n1 (stereo not drawn)  OCT1 WT (Homo sapiens, UniProt O15245)            high
18  CN(C)CCc1c[nH]c2ccc(CS(=O)(=O)N3CCCC3)cc12  OCT1 WT (Homo sapiens, UniProt O15245)             low

----------
- tested_system: OCT1 Phe244Ala variant (Homo sapiens, UniProt O15245, F244A)
- experiment: cell-based
pIC50: −log10 of the molar value.
Here the recorded pIC50 is given for each entry.
measurement_label: pIC50

>>> df
                                   molecule  measurement_label  observed_result
0  CN1CCN(CC(=O)N2c3ccccc3C(=O)Nc3cccnc32)CC1 [Pirenzepine]              pIC50             4.63
1                        CN(C)CCc1ccc(O)cc1              pIC50             4.27
2                   Clc1cccc(Cl)c1N=C1NCCN1              pIC50             4.46
3  CC(Cc1ccc(O)cc1)NCC(O)c1cc(O)cc(O)c1 (stereo not shown)              pIC50             5.26

----------
Here the recorded Mean_transport_ratio_WT is given for each entry.
- tested_system: UniProt:O15245
- Sequence (O15245 1-554): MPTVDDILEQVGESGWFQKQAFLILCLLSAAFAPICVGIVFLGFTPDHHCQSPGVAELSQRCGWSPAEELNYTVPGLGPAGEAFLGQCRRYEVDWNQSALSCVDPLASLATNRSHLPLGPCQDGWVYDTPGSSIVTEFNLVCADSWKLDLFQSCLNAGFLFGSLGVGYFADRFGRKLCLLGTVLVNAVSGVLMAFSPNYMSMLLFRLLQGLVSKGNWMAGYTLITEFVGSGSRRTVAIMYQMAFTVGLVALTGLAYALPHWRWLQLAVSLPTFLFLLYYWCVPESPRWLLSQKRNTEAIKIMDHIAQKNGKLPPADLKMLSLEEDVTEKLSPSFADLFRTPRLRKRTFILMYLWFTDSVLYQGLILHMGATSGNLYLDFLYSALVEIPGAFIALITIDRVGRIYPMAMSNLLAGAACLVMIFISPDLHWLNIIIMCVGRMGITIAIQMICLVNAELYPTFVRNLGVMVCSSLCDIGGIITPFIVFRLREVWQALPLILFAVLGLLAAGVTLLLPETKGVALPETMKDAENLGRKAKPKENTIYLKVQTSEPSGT
- experiment: Uptake screening (transport ratio over empty vector), HEK293 cells overexpressing OCT1 WT;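 also: intracellular substrate levels quantified by HPLC–tandem mass spectrometry after uptake in HBSS+ buffer at 37 °C, stable Flp-In HEK293 lines, fold change versus empty vector–transfected cells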
- Format: cell-based
- Set-up: expressed in transfected cells
- conditions_used: uptake ratio of OCT1 WT-overexpressing HEK293 cells over empty vector
measurement_label: Mean_transport_ratio_WT

>>> print(df.to_string())
                                   compound        measurement_label  observed_result
0                          COc1cc(CCN)ccc1O  Mean_transport_ratio_WT            3.981
1  CCC(NC(C)C)C(O)c1ccc(O)c(O)c1 (stereo not shown)  Mean_transport_ratio_WT           15.766
2                   C[n+]1ccc(-c2ccccc2)cc1  Mean_transport_ratio_WT           45.919
3  CC(C)NCC(O)c1ccc(O)c(O)c1 (stereo not shown)  Mean_transport_ratio_WT            6.241

----------
- tested_system: OCT1 Phe244Ala variant (Homo sapiens, UniProt O15245, F244A)
- experiment: Uptake screening (transport ratio over empty vector), HEK293 cells overexpressing OCT1 Phe244Ala variant;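 also: stably transfected HEK293 cells, intracellular substrate quantified by HPLC-tandem mass spectrometry in cell lysates, uptake in HBSS+ buffer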
- Format: cell-based
- Design: expressed in transfected cells
- conditions_used: Phe244Ala uptake relative to OCT1 WT
Here the recorded relative_Phe244Ala_uptake_in% is given for each entry.
measurement_label: relative_Phe244Ala_uptake_in% (%)

In [3]: df
Out[3]:
                                   molecule              measurement_label  observed_result
0       CC(N)CCCC(C)(C)O (stereo not shown)  relative_Phe244Ala_uptake_in%           20.840
1  O=C(O[C@H]1C[C@H]2CC[C@@H](C1)[N+]21CCCC1)C(O)(c1ccccc1)c1ccccc1  relative_Phe244Ala_uptake_in%          106.940
2    Cc1cccc(C)c1OCC(C)N (stereo not shown)  relative_Phe244Ala_uptake_in%           53.635
3                           CNCCc1ccc(O)cc1  relative_Phe244Ala_uptake_in%           12.133
4  CNC(C)Cc1ccc2c(c1)OCO2 (stereo not shown)  relative_Phe244Ala_uptake_in%          158.013
5        Cc1cc(C(C)(C)C)c(O)c(C)c1CC1=NCCN1  relative_Phe244Ala_uptake_in%          112.174
6    CNC[C@H](O)c1cccc(O)c1 [Phenylephrine]  relative_Phe244Ala_uptake_in%           29.477
7  O=C(NCCNCC(O)COc1ccc(O)cc1)N1CCOCC1 (stereo not shown)  relative_Phe244Ala_uptake_in%           54.211
8               N=C(N)NC(=O)Cc1c(Cl)cccc1Cl  relative_Phe244Ala_uptake_in%           86.485
9                       NC(N)=NCc1cccc(I)c1  relative_Phe244Ala_uptake_in%           96.674
